pIC50 data for Non-receptor tyrosine-protein kinase TYK2 (Homo sapiens, UniProt P29597) follow.
pIC50: −log10 of the molar value.
Measurement kind: pIC50

[[record]]
compound_smiles = "CCOC(=O)Oc1cccc(Nc2cc(Nc3ccccc3Cl)c(C(N)=O)cn2)n1"
recorded_number = 7.23

[[record]]
compound_smiles = "Cc1cccc(Nc2cc(Nc3ccccc3Cl)c(C(N)=O)cn2)n1"
recorded_number = 7.22

[[record]]
compound_smiles = "NC(=O)c1cnc(Nc2cccc(O)n2)cc1Nc1ccccc1Cl"
recorded_number = 5.68


====

Tested system: Interleukin-1 receptor-associated kinase 4 (Homo sapiens, UniProt Q9NWZ3)
Sequence (Q9NWZ3 whole entry): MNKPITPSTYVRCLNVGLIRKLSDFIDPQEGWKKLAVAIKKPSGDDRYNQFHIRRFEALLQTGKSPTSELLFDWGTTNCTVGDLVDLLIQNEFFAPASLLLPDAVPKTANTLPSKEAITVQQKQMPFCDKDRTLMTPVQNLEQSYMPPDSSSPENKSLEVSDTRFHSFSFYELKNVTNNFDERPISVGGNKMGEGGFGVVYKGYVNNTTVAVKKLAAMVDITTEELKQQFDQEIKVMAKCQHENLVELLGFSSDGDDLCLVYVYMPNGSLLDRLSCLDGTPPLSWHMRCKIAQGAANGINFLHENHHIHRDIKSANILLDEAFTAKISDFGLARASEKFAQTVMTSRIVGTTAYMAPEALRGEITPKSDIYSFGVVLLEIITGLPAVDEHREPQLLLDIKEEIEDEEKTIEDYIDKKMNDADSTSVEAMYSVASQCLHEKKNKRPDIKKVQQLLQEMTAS
Measurement kind: IC50

[[record]]
compound_smiles = "NC(=O)c1cnc(Nc2cccc(O)n2)cc1Nc1ccccc1Cl"
tested_system = "Interleukin-1 receptor-associated kinase 4 (Homo sapiens, UniProt Q9NWZ3)"
measurement_kind = "IC50"
result = "> 2500 nM"


====

Tested system: Tyrosine-protein kinase Lck (Homo sapiens)
Sequence (P06239 whole entry): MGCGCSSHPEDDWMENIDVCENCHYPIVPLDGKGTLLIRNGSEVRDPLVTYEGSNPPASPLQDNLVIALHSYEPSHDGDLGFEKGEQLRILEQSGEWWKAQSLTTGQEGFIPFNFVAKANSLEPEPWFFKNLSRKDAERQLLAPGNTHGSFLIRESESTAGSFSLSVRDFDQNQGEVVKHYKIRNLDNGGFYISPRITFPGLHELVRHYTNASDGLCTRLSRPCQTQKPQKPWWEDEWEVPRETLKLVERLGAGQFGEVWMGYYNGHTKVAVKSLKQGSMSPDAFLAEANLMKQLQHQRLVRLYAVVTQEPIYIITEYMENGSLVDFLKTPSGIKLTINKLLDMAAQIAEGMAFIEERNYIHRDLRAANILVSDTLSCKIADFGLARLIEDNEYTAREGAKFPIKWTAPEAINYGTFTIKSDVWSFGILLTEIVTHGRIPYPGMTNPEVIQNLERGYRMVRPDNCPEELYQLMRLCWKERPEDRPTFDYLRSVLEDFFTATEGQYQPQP
Measurement protocol: Inhibition of LCK (unknown origin)
Measurement kind: IC50

[[record]]
compound_smiles = "NC(=O)c1cnc(Nc2cccc(O)n2)cc1Nc1ccccc1Cl"
measurement_kind = "IC50"
result = "> 2500 nM"


====

Measurement protocol: Dissociation constant, pKa of compound
Type: physicochemical
Measurement kind: pKa

[[record]]
compound_smiles = "Cc1cccc(Nc2cc(Nc3ccccc3Cl)c(C(N)=O)cn2)n1"
recorded_number = 6.2


====

Tested system: JAK1/TYK2 (Homo sapiens, UniProt P23458+P29597)
Sequence (P23458 whole entry): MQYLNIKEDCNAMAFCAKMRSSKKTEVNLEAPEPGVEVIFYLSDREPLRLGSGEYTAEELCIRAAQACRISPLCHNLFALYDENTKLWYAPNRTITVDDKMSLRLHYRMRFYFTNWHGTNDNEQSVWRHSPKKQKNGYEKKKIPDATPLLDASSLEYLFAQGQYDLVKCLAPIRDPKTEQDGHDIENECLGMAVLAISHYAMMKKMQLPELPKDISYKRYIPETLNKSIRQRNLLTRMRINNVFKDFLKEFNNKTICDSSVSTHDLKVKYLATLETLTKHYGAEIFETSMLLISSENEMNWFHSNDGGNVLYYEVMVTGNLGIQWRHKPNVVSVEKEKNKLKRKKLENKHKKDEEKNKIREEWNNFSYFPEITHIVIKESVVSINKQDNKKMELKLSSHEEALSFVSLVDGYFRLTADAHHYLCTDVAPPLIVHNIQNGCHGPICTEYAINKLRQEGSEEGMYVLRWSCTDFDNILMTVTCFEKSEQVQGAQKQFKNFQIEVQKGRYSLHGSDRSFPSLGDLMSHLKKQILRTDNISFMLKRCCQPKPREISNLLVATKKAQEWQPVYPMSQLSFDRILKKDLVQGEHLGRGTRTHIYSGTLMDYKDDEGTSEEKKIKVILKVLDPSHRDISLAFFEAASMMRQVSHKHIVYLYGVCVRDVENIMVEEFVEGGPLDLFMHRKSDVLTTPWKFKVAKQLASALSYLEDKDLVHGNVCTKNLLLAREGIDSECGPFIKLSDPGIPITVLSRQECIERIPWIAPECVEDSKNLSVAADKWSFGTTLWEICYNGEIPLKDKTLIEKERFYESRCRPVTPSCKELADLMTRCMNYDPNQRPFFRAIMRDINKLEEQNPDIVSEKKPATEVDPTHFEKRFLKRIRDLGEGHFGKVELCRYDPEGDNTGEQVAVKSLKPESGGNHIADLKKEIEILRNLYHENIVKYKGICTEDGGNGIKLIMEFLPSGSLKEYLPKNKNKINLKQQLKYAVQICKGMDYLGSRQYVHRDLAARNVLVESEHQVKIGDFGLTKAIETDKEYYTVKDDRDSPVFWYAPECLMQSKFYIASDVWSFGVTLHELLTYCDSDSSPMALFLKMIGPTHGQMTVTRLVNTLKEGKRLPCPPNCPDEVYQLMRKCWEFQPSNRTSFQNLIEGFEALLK
Sequence (P29597 whole entry): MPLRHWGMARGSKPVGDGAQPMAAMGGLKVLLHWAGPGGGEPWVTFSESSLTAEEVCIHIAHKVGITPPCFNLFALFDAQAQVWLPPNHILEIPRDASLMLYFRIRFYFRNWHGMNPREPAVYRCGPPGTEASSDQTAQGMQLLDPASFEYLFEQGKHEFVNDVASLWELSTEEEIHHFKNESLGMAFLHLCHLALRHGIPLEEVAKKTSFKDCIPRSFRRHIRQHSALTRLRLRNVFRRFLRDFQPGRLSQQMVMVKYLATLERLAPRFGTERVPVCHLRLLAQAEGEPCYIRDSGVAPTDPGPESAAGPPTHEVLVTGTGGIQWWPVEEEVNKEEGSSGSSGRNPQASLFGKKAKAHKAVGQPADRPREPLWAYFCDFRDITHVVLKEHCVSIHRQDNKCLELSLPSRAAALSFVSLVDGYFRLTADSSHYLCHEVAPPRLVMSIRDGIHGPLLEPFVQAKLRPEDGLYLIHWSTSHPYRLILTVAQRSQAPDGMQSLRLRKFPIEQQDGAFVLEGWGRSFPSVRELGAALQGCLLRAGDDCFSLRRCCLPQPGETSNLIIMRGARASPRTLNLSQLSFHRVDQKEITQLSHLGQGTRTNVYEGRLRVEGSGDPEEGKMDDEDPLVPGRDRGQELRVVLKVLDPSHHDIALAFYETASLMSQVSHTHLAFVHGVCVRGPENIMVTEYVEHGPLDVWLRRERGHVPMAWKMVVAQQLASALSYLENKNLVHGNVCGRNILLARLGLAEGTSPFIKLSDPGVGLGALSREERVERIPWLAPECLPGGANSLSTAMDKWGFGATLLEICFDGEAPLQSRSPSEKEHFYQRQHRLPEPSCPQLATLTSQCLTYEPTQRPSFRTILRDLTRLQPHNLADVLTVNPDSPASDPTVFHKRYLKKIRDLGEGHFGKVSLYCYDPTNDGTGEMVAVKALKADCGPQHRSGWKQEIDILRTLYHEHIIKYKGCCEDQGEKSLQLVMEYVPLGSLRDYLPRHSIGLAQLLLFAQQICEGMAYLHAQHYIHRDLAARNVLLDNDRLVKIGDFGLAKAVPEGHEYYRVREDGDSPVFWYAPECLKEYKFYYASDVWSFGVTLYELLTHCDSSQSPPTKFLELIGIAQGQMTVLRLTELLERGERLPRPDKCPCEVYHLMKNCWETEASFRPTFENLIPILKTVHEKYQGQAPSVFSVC
Measurement protocol: Inhibition of JAK1/TYK2 in human M07E cells assessed as reduction of IFN alpha stimulated STAT phosphorylation preincubated for 30 mins followed by IFN alpha stimulation for 15 mins by flow cytometry method
Measurement kind: IC50 (nM)

[[record]]
compound_smiles = "NC(=O)c1cnc(Nc2ccc(O)cn2)cc1Nc1ccccc1Cl"
result_operator = "="
recorded_number = 290

[[record]]
compound_smiles = "COc1cccc(Nc2cc(Nc3ccccc3Cl)c(C(N)=O)cn2)n1"
result_operator = "="
recorded_number = 271

[[record]]
compound_smiles = "NC(=O)c1cnc(Nc2cccc(O)n2)cc1Nc1ccccc1Cl"
result_operator = ">"
recorded_number = 10000

[[record]]
compound_smiles = "CCOC(=O)Oc1cccc(Nc2cc(Nc3ccccc3Cl)c(C(N)=O)cn2)n1"
result_operator = "="
recorded_number = 71


====

Tested system: Tyrosine-protein kinase JAK2 (Homo sapiens)
Sequence (O60674 whole entry): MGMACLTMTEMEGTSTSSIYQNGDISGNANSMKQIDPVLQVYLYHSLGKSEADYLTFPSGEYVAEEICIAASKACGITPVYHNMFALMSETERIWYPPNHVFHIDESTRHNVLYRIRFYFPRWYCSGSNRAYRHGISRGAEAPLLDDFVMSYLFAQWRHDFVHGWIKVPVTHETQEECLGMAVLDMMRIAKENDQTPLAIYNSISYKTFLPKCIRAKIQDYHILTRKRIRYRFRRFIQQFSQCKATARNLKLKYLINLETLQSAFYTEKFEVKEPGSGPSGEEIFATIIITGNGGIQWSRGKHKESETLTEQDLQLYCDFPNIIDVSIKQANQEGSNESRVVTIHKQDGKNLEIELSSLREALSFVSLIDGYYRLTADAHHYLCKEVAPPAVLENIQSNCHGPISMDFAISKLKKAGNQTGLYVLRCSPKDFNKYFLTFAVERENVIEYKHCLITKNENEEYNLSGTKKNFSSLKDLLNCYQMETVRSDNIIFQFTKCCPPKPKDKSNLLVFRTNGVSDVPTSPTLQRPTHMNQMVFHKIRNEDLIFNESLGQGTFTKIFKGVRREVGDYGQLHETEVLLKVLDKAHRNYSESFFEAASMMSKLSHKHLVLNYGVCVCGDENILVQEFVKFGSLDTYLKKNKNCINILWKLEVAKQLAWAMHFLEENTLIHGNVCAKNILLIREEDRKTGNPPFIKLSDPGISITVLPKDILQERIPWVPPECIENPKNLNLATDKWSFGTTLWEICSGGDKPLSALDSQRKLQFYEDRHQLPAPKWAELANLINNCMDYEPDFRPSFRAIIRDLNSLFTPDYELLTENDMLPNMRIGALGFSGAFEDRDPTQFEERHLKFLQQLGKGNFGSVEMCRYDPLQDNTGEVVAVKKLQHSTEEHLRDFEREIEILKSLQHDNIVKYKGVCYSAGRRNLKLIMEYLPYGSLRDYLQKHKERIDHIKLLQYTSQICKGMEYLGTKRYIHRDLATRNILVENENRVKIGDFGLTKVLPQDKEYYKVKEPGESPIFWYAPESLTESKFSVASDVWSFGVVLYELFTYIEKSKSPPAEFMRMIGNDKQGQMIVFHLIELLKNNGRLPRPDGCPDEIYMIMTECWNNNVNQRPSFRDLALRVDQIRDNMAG
Measurement kind: IC50 (µM)

[[record]]
compound_smiles = "NC(=O)c1cnc(Nc2cccc(O)n2)cc1Nc1ccccc1Cl"
measurement_kind = "IC50"
value_unit = "µM"
recorded_number = 3.15

